test system: L929 cell lines (mouse fibroblasts); assay: MTT reduction cytotoxicity assay; format: cell-based; details: 0.5 μg/mL, 24 h
Kindly apply the following: class 1 if mean percentage of viable cells ± SD is less than 20%, class 0 in every other case.

1) CC1CC(=O)OC(c2ccc(F)cc2)C1I (centres unmarked) [9c] ... class 1
2) CC1CC(=O)OC(c2ccc(F)cc2)C1Br (centres unmarked) [7c] ... class 0
3) CC1CC(=O)OC(c2ccc(F)cc2)C1Cl (centres unmarked) [5c] ... class 0
4) CC1CC(=O)OC(c2ccccc2)C1Br (mixture of isomers) ... class 1

From here, focus on the item given below.
Item CC1CC(=O)OC(c2cccc3ccccc23)C1Cl (mixture of isomers) : mean percentage of viable cells ± SD beneath 20%, strictly? class 1
